Source listed as the supplement of paper PMC11061612.

Task for the reader: assign each of the following compounds its reported combination Emax.
tested on: SNU-407 (Colorectal Carcinoma); assay: combination Emax (second highest fraction inhibited in the dose matrix, 72 h); higher = more inhibition; extreme values may be limits of the assay

Query string: # query: combination Emax of entry CC(=O)c1c(C)c2cnc(Nc3ccc(N4CCNCC4)cn3)nc2n(C2CCCC2)c1=O [Palbociclib] + Cn1cnc2c(F)c(Nc3ccc(Br)cc3Cl)c(C(=O)NOCCO)cc21 [Selumetinib] (first compound max 10 µM, 7x7, partner max 10 µM)
Result string: 0.654

Query string: # query: combination Emax of entry CN(C)CCCOc1ccc(-c2ccc3ncc4c(c3c2)n(C2CCOCC2)c(=O)n4C)cn1 [AZD0156] + O=C(c1cc(Cc2n[nH]c(=O)c3ccccc23)ccc1F)N1CCN(C(=O)C2CC2)CC1 [Olaparib] (first compound max 3 µM, partner max 3 µM)
Result string: 0.296

Query string: # query: combination Emax of entry COc1cccc(OCCCN)c1-c1cc(Nc2cnc(C#N)cn2)n[nH]1 [Prexasertib] + CN(C)CCCOc1ccc(-c2ccc3ncc4c(c3c2)n(C2CCOCC2)c(=O)n4C)cn1 [AZD0156] (first compound max 1 µM, 7x7, partner max 1 µM)
Result string: 0.653

Query string: # query: combination Emax of entry C=CCn1c(=O)c2cnc(Nc3ccc(N4CCN(C)CC4)cc3)nc2n1-c1cccc(C(C)(C)O)n1 [AZD1775] + C[C@@H]1COCCN1C2=NC(=NC(=C2)C3(CC3)[S@](=N)(=O)C)C4=C5C=CNC5=NC=C4 [AZD6738] (first compound max 1 µM, partner max 10 µM)
Result string: 0.758

Query string: # query: combination Emax of entry NC1(C(=O)N[C@@H](CCO)c2ccc(Cl)cc2)CCN(c2ncnc3[nH]ccc23)CC1 [Capivasertib] + C[C@@H]1COCCN1C2=NC(=NC(=C2)C3(CC3)[S@](=N)(=O)C)C4=C5C=CNC5=NC=C4 [AZD6738] (first compound max 10 µM, 7x7, partner max 10 µM)
Result string: 0.82

----------
test system: NCI-H2373 (Mesothelioma); assay: Bliss excess, mean over the matrix (fraction); higher = more synergy
Task for the reader: assign each of the following compounds its reported Bliss excess.

Query string: # query: Bliss excess of entry CN(CCO)CC[C@H](CSc1ccccc1)Nc1ccc(S(=O)(=O)NC(=O)c2ccc(N3CCC([C@@H](O)c4ccccc4-c4ccc(Cl)cc4)CC3)cc2)cc1S(=O)(=O)C(F)(F)F [AZD4320] + Cc1cc2ncnn2cc1Nc1ncc2c(n1)n(C1CCOCC1)c(=O)n2C [AZD7648] (first compound max 1 µM, 7x7, partner max 10 µM)
Result string: -0.0389

Query string: # query: Bliss excess of entry CN(C)CCCOc1ccc(-c2ccc3ncc4c(c3c2)n(C2CCOCC2)c(=O)n4C)cn1 [AZD0156] + O=C(c1cc(Cc2n[nH]c(=O)c3ccccc23)ccc1F)N1CCN(C(=O)C2CC2)CC1 [Olaparib] (first compound max 3 µM, partner max 3 µM)
Result string: 0.0178

----------
Task for the reader: assign each of the following molecules its reported Bliss excess.
test system: NCI-H1341 (Small Cell Lung Carcinoma); test: Bliss excess, mean over the matrix (fraction); higher = more synergy
Lab note: jot the number down without any unit.

Query string: # query: Bliss excess of entry CCN(CCO)CCCOc1ccc2c(Nc3cc(CC(=O)Nc4cccc(F)c4)[nH]n3)ncnc2c1 [AZD2811] + C=CCn1c(=O)c2cnc(Nc3ccc(N4CCN(C)CC4)cc3)nc2n1-c1cccc(C(C)(C)O)n1 [AZD1775] (first compound max 1 µM, partner max 1 µM)
Result string: 0.0747

Query string: # query: Bliss excess of entry CC1(C)CCC(CN2CCN(c3ccc(C(=O)NS(=O)(=O)c4ccc(NCC5CCOCC5)c([N+](=O)[O-])c4)c(Oc4cnc5[nH]ccc5c4)c3)CC2)=C(c2ccc(Cl)cc2)C1 [Venetoclax] + C[C@@H]1COCCN1C2=NC(=NC(=C2)C3(CC3)[S@](=N)(=O)C)C4=C5C=CNC5=NC=C4 [AZD6738] (first compound max 1 µM, 7x7, partner max 10 µM)
Result string: 0.0142

Query string: # query: Bliss excess of entry COc1cc2c(cc1OCCCCCOc1cc3c(cc1OC)C(=O)N1C=C(C)C[C@H]1C=N3)N=C[C@@H]1CC(C)=CN1C2=O [SG3199] + O=C(c1cc(Cc2n[nH]c(=O)c3ccccc23)ccc1F)N1CCN(C(=O)C2CC2)CC1 [Olaparib] (first compound max 0.001 µM, 7x7, partner max 10 µM)
Result string: -0.0059

Query string: # query: Bliss excess of entry CN(C)CCCOc1ccc(-c2ccc3ncc4c(c3c2)n(C2CCOCC2)c(=O)n4C)cn1 [AZD0156] + C[C@@H]1COCCN1C2=NC(=NC(=C2)C3(CC3)[S@](=N)(=O)C)C4=C5C=CNC5=NC=C4 [AZD6738] (first compound max 1 µM, 7x7, partner max 10 µM)
Result string: 0.0309

Query string: # query: Bliss excess of entry CS(=O)(=O)CCNCc1ccc(-c2ccc3ncnc(Nc4ccc(OCc5cccc(F)c5)c(Cl)c4)c3c2)o1 [Lapatinib] + C[C@@H](Oc1cc(-c2cnn(C3CCNCC3)c2)cnc1N)c1c(Cl)ccc(F)c1Cl [Crizotinib] (first compound max 10 µM, 7x7, partner max 10 µM)
Result string: 0.0876

Query string: # query: Bliss excess of entry CC1(C)CCC(CN2CCN(c3ccc(C(=O)NS(=O)(=O)c4ccc(NCC5CCOCC5)c([N+](=O)[O-])c4)c(Oc4cnc5[nH]ccc5c4)c3)CC2)=C(c2ccc(Cl)cc2)C1 [Venetoclax] + CCN(CCO)CCCOc1ccc2c(Nc3cc(CC(=O)Nc4cccc(F)c4)[nH]n3)ncnc2c1 [AZD2811] (first compound max 1 µM, 7x7, partner max 1 µM)
Result string: 0.0606

Query string: # query: Bliss excess of entry NC1(C(=O)N[C@@H](CCO)c2ccc(Cl)cc2)CCN(c2ncnc3[nH]ccc23)CC1 [Capivasertib] + Cn1cnc2c(F)c(Nc3ccc(Br)cc3Cl)c(C(=O)NOCCO)cc21 [Selumetinib] (first compound max 10 µM, 7x7, partner max 10 µM)
Result string: 0.0605

Query string: # query: Bliss excess of entry C=CCn1c(=O)c2cnc(Nc3ccc(N4CCN(C)CC4)cc3)nc2n1-c1cccc(C(C)(C)O)n1 [AZD1775] + O=C(c1cc(Cc2n[nH]c(=O)c3ccccc23)ccc1F)N1CCN(C(=O)C2CC2)CC1 [Olaparib] (first compound max 1 µM, partner max 10 µM)
Result string: -0.0236

Query string: # query: Bliss excess of entry CN(CCO)CC[C@H](CSc1ccccc1)Nc1ccc(S(=O)(=O)NC(=O)c2ccc(N3CCC([C@@H](O)c4ccccc4-c4ccc(Cl)cc4)CC3)cc2)cc1S(=O)(=O)C(F)(F)F [AZD4320] + CN(C)CCCOc1ccc(-c2ccc3ncc4c(c3c2)n(C2CCOCC2)c(=O)n4C)cn1 [AZD0156] (first compound max 1 µM, 7x7, partner max 1 µM)
Result string: 0.0517

Query string: # query: Bliss excess of entry Cc1c2c(nn1C)CSCc1cc(n(C)n1)CSc1cc(c3ccccc3c1)OCCCc1c(C(=O)O)n(C)c3c-2c(Cl)ccc13 [AZD5991] + Cn1cnc2c(F)c(Nc3ccc(Br)cc3Cl)c(C(=O)NOCCO)cc21 [Selumetinib] (first compound max 1 µM, 7x7, partner max 3 µM)
Result string: 0.0693

Query string: # query: Bliss excess of entry COc1nnc2ccc(N3CCC(c4ccc(OCCN5CCN(C)C(=O)[C@H]5C)cc4)CC3)nn12 [AZD5153] + CCN(CCO)CCCOc1ccc2c(Nc3cc(CC(=O)Nc4cccc(F)c4)[nH]n3)ncnc2c1 [AZD2811] (first compound max 1 µM, 7x7, partner max 1 µM)
Result string: 0.0041

Query string: # query: Bliss excess of entry Cn1cnc2c(F)c(Nc3ccc(Br)cc3Cl)c(C(=O)NOCCO)cc21 [Selumetinib] + C[C@@H]1COCCN1C2=NC(=NC(=C2)C3(CC3)[S@](=N)(=O)C)C4=C5C=CNC5=NC=C4 [AZD6738] (first compound max 10 µM, 7x7, partner max 10 µM)
Result string: 0.0757

Query string: # query: Bliss excess of entry Cc1c2c(nn1C)CSCc1cc(n(C)n1)CSc1cc(c3ccccc3c1)OCCCc1c(C(=O)O)n(C)c3c-2c(Cl)ccc13 [AZD5991] + C1CN(CCC1(C(=O)N[C@@H](CCO)C2=CC=C(C=C2)Cl)N)C3=NC=NC4=C3C=CN4 [Capivasertib] (first compound max 1 µM, 7x7, partner max 3 µM)
Result string: 0.0609
